experiment: Oral bioavailability in C57 albino mouse at 10 mg/kg; assay type: ADME, organism-based; settings: in vivo
value.type: bioavailability

>>> print(df.to_string())
                                smiles_data  result
0  C[C@@H](Nc1nc(N)nc(-c2ccc(C[C@H](N)C(=O)O)cc2)n1)c1ccc2ccccc2c1      5%

* * *

pIC50 values, listed per item
Biological target: Tryptophan 5-hydroxylase 1 (Homo sapiens, UniProt P17752)
Sequence (P17752 whole entry): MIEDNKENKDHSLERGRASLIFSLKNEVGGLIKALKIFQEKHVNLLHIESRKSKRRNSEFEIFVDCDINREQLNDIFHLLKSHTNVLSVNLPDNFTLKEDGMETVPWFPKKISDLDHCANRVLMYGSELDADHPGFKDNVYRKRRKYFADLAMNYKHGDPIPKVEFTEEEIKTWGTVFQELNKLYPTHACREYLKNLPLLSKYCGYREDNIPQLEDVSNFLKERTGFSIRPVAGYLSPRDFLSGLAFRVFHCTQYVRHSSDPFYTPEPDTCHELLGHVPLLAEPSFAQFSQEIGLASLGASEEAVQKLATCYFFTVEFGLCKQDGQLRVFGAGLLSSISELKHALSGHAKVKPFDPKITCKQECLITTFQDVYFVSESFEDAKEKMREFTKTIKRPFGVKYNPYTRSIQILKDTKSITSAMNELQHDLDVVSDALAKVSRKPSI
Assay: Inhibition of human recombinant TPH1 by continuous fluorescence assay
pIC50: −log10 of the molar value.
value.type: pIC50

>>> print(df.to_string())
                                    compound                                    target  result_number
 0  Nc1nc(NCc2ccc(-c3ccc(C(F)(F)F)cc3)cc2)nc(-c2ccc(C[C@H](N)C(=O)O)cc2)n1  Tryptophan 5-hydroxylase 1 (Homo sapiens, UniProt P17752)           6.80
 1  CC(Nc1nc(N)nc(-c2ccc(C[C@H](N)C(=O)O)cc2)n1)C12CC3CC(CC(C3)C1)C2 (stereo partly drawn)  Tryptophan 5-hydroxylase 1 (Homo sapiens, UniProt P17752)           7.72
 2  Nc1nc(NCc2ccc(Oc3ccccc3)cc2)nc(-c2ccc(C[C@H](N)C(=O)O)cc2)n1  Tryptophan 5-hydroxylase 1 (Homo sapiens, UniProt P17752)           6.82
 3  C[C@H](c1ccc2ccccc2c1)N(C)c1nc(N)nc(-c2ccc(C[C@H](N)C(=O)O)cc2)n1  Tryptophan 5-hydroxylase 1 (Homo sapiens, UniProt P17752)           7.30
 4  Nc1nc(NC(c2ccc3ccccc3c2)C(F)(F)F)nc(-c2ccc(C[C@H](N)C(=O)O)cc2)n1 (stereo partly drawn)  Tryptophan 5-hydroxylase 1 (Homo sapiens, UniProt P17752)           6.48
 5  CC(Nc1nc(N)nc(-c2ccc(C[C@H](N)C(=O)O)cc2)n1)c1ccc(-c2ccccc2)cc1 (stereo partly drawn)  Tryptophan 5-hydroxylase 1 (Homo sapiens, UniProt P17752)           7.62
 6  CC(C)CC(Nc1nc(N)nc(-c2ccc(C[C@H](N)C(=O)O)cc2)n1)c1ccc2ccccc2c1 (stereo partly drawn)  Tryptophan 5-hydroxylase 1 (Homo sapiens, UniProt P17752)           6.92
 7  N[C@@H](Cc1ccc(-c2nc(NCc3ccc4ccccc4c3)nc(N3CCOCC3)n2)cc1)C(=O)O  Tryptophan 5-hydroxylase 1 (Homo sapiens, UniProt P17752)           4.81
 8  Nc1nc(NCC2CCCCC2)nc(-c2ccc(C[C@H](N)C(=O)O)cc2)n1  Tryptophan 5-hydroxylase 1 (Homo sapiens, UniProt P17752)           6.92
 9  CC(Nc1ncnc(-c2ccc(C[C@H](N)C(=O)O)cc2)n1)c1ccc2ccccc2c1 (stereo partly drawn)  Tryptophan 5-hydroxylase 1 (Homo sapiens, UniProt P17752)           6.72
10  Nc1nc(NCc2ccc(-c3ccccc3)cc2)nc(-c2ccc(C[C@H](N)C(=O)O)cc2)n1  Tryptophan 5-hydroxylase 1 (Homo sapiens, UniProt P17752)           7.22
11  Nc1nc(OC(c2ccc3ccccc3c2)C(F)(F)F)nc(-c2ccc(C[C@H](N)C(=O)O)cc2)n1 (stereo partly drawn)  Tryptophan 5-hydroxylase 1 (Homo sapiens, UniProt P17752)           6.49
12  Nc1nc(NCc2cccc(-c3ccccc3)c2)nc(-c2ccc(C[C@H](N)C(=O)O)cc2)n1  Tryptophan 5-hydroxylase 1 (Homo sapiens, UniProt P17752)           7.42
13  Nc1nc(NCc2ccc(C(F)(F)F)cc2)nc(-c2ccc(C[C@H](N)C(=O)O)cc2)n1  Tryptophan 5-hydroxylase 1 (Homo sapiens, UniProt P17752)           6.92
14  CNc1nc(N[C@H](C)c2ccc3ccccc3c2)nc(-c2ccc(C[C@H](N)C(=O)O)cc2)n1  Tryptophan 5-hydroxylase 1 (Homo sapiens, UniProt P17752)           6.21
15  CC(C)C(Nc1nc(N)nc(-c2ccc(C[C@H](N)C(=O)O)cc2)n1)c1ccc2ccccc2c1 (stereo partly drawn)  Tryptophan 5-hydroxylase 1 (Homo sapiens, UniProt P17752)           6.60
16  CC(C)(Nc1nc(N)nc(-c2ccc(C[C@H](N)C(=O)O)cc2)n1)c1ccc2ccccc2c1  Tryptophan 5-hydroxylase 1 (Homo sapiens, UniProt P17752)           7.26
17  Nc1nc(NCc2ccccc2)nc(-c2ccc(C[C@H](N)C(=O)O)cc2)n1  Tryptophan 5-hydroxylase 1 (Homo sapiens, UniProt P17752)           6.30

Numbers sourced from ChEMBL document CHEMBL1155300.
